Measured MIC accompanies every entry in the list below.
System: Staphylococcus epidermidis
PROCEDURE DETAILS: Antimicrobial activity against Staphylococcus epidermidis RP62A by microdilution method
Assay type: functional
Note: unit mg/L is implicit; provide only the numeric part.

STRUCTURE STRING	QUANTITY KIND	OBSERVED MEASUREMENT
C/C(O)=C1\C(=O)[C@H](CC(C)C)N(Cc2ccc(-c3ccccc3)cc2)C1=O	MIC	0.8

Req: Give the measured MIC of C/C(=C\C(=O)OCCCCCCCCC(=O)O)C[C@@H]1OC[C@H](C[C@@H]2O[C@H]2[C@@H](C)[C@H](C)O)[C@@H](O)[C@H]1O .
Resp: 0.12

Req: Fill blank: measured MIC of the compound CN[C@H](CC(C)C)C(=O)N[C@H]1C(=O)N[C@@H](CC(N)=O)C(=O)N[C@H]2C(=O)N[C@H]3C(=O)N[C@H](C(=O)N[C@H](C(=O)O)c4cc(O)cc(O)c4-c4cc3ccc4O)[C@H](O)c3ccc(c(Cl)c3)Oc3cc2cc(c3O[C@@H]2O[C@H](CO)[C@@H](O)[C@H](O)[C@H]2O[C@H]2C[C@](C)(N)[C@H](O)[C@H](C)O2)Oc2ccc(cc2Cl)[C@H]1O is ____.
Resp: 1.6

Req: Requested field: MIC. Item: CO[C@H]1/C=C/O[C@@]2(C)Oc3c(C)c(O)c4c(O)c(c(/C=N/N5CCN(C)CC5)c(O)c4c3C2=O)NC(=O)/C(C)=C\C=C\[C@H](C)[C@H](O)[C@@H](C)[C@@H](O)[C@@H](C)[C@H](OC(C)=O)[C@@H]1C
Resp: 0.012

====

System: Staphylococcus epidermidis
PROCEDURE DETAILS: Antimicrobial activity against Staphylococcus epidermidis RP62A by microdilution method
Assay type: functional
QUANTITY KIND: MIC (mg/L)
Report only the number, with the unit mg/L understood.

> print(dat)
                                   compound             subject.of.test  observed.measurement
1  CCCCCCCCCCN1C(=O)/C(=C(/C)O)C(=O)[C@@H]1CC(C)C  Staphylococcus epidermidis                   0.4
2  CCCCCCCCCCN1C(=O)/C(=C(/C)O)C(=O)[C@@H]1C(C)C  Staphylococcus epidermidis                   0.8
3  C/C(O)=C1\C(=O)[C@H](CC(C)C)N(CCC(C)C/C=C/C(C)C)C1=O (some centres undefined)  Staphylococcus epidermidis                   0.8

Next compound, please.
Req: Field: MIC (Staphylococcus epidermidis). Entry: C/C(O)=C1\C(=O)[C@H](CC(C)C)N(CC2=CCC3CC2C3(C)C)C1=O (some centres undefined)
Resp: 3.12

====

Test system: Staphylococcus aureus
PROCEDURE DETAILS: Antimicrobial activity against Staphylococcus aureus 8235 selected after 4 times MIC pre-incubated for 1 hr by microdilution method
Type: functional
QUANTITY KIND: MIC

> print(dat)
                                   compound  observed.measurement
1  CCCCCCCCCCN1C(=O)/C(=C(/C)O)C(=O)[C@@H]1C(C)C             0.8 µg/mL
2  CCCCCCCCCCN1C(=O)/C(=C(/C)O)C(=O)[C@@H]1CC(C)C             0.8 µg/mL
3  C/C(O)=C1\C(=O)[C@H](CC(C)C)N(Cc2ccc(-c3ccccc3)cc2)C1=O             0.8 µg/mL
4  C/C(O)=C1\C(=O)[C@H](CC(C)C)N(CCC(C)C/C=C/C(C)C)C1=O (stereo partly specified)             0.8 µg/mL

Req: Given CC1(C)S[C@@H]2[C@H](NC(=O)[C@H](N)c3ccc(O)cc3)C(=O)N2[C@H]1C(=O)O , state its recorded MIC.
Resp: 12.5 µg/mL

Req: Which MIC value is on record for C/C(O)=C1\C(=O)[C@H](CC(C)C)N(CC2=CCC3CC2C3(C)C)C1=O (stereo partly specified) ?
Resp: 1.6 µg/mL
